Target: UniProt P10415
Assay: Molecular level activity test of anti-apoptotic protein BCL2 (HTRF, binding to Bim peptide)
Conditions: HTRF, binding of BCL2 to Bim peptide; read-out: BCL2 nM (inhibitory activity, IC50)
pIC50: −log10 of the molar value.
measured.quantity: pIC50

# molecule, pIC50
records = [
    ("COc1ccc(CN2CCN(C3CC4(CCN(c5ccc(C(=O)NS(=O)(=O)c6cc([N+](=O)[O-])c(NCC7(F)CCOCC7)c7c6OCO7)c(Oc6cnc7[nH]ccc7c6)c5)CC4)C3)[C@H](c3ccccc3C(C)C)C2)cn1 [compound 166]", "> 8.00"),
]

(Q) What pIC50 value was documented for this molecule, CC(C)c1ccccc1[C@@H]1CN(Cc2c(F)cccc2F)CCN1C1CC2(CCN(c3ccc(C(=O)NS(=O)(=O)c4cc([N+](=O)[O-])c(NCC5(F)CCOCC5)c5c4OCO5)c(Oc4cnc5[nH]ccc5c4)c3)CC2)C1 [compound 170] ?
(A) > 8.00

---

Biological target: BCL2 (Homo sapiens (Human), UniProt P10415)
Experiment: Molecular level activity test of anti-apoptotic protein BCL2 (HTRF, binding to Bim peptide)
Conditions: HTRF, binding of BCL2 to Bim peptide; read-out: BCL2 nM (inhibitory activity, IC50)
measured.quantity: IC50

# test.smiles, result
rows = [
    ("COc1ccc(CN2CCN(C3CC4(CCN(c5cc(Oc6cnc7[nH]ccc7c6)c(C(=O)NS(=O)(=O)c6cc([N+](=O)[O-])c(NC[C@H]7CC[C@](C)(O)CC7)c7c6OCO7)cc5F)CC4)C3)[C@H](c3ccccc3C(C)C)C2)cc1", "< 10 nM"),
]

Now examine the next entry.
(Q) What IC50 value was documented for this compound, COc1ccc(CN2CCN(C3CC4(CCN(c5cc(Oc6cnc7[nH]ccc7c6)c(C(=O)NS(=O)(=O)c6cc([N+](=O)[O-])c(NC[C@H]7CC[C@](C)(O)CC7)c7scnc67)cn5)CC4)C3)[C@H](c3ccccc3C(C)C)C2)cc1 ?
(A) < 10 nM

---

Molecular target: UniProt P08684
Sequence (P08684 whole entry): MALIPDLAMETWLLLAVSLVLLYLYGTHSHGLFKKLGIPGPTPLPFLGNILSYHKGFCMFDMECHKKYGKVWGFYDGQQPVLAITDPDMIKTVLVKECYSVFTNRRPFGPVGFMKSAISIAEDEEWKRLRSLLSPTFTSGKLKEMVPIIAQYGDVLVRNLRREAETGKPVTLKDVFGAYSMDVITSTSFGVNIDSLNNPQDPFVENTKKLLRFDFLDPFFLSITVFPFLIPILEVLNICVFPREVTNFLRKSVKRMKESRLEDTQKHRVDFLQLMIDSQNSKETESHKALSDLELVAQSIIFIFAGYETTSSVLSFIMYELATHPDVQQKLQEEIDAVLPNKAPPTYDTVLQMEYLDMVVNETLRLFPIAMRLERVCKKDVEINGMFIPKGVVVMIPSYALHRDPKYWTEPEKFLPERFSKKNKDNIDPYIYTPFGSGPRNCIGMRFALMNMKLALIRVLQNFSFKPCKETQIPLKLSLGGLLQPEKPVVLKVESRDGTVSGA
pIC50: −log10 of the molar value.
measured.quantity: pIC50

(Q) What pIC50 value was documented for this compound, COc1ccc(CN2CCN(C3CC4(CCN(c5cc(Oc6cnc7[nH]ccc7c6)c(C(=O)NS(=O)(=O)c6ccc(NCC7(F)CCOCC7)c([N+](=O)[O-])c6)cc5F)CC4)C3)[C@H](c3ccccc3C(C)C)C2)cc1 ?
(A) < 4.70

---

Biological target: BCL2 (G101V) (Homo sapiens (Human), UniProt P10415, G101V)
Experiment: Molecular level activity test of anti-apoptotic protein BCL2 (G101V) (HTRF, binding to Bim peptide)
Settings: inhibition of BCL2 (G101V) binding to Bim peptide, read-out: BCL-2 (G101V)
Description: The detection of the binding ability between anti-apoptotic protein BCL2 (G101V) and pro-apoptotic protein Bim was performed using Homogeneous Time-Resolved Fluorescence technology. […] After incubating at room temperature for 4 hours, the values were read using the Envision multifunctional microplate reader to detect the effect of the compound to be tested on the binding ability of BCL2 (G101V) to BIM protein peptides.
measured.quantity: IC50

# compound, IC50
rows = [
    ("CNCc1cc(CN2CCN(C3CC4(CCN(c5cc(Oc6cnc7[nH]ccc7c6)c(C(=O)NS(=O)(=O)c6ccc(NCC7(F)CCOCC7)c([N+](=O)[O-])c6)cc5F)CC4)C3)[C@H](c3ccccc3C(C)C)C2)ccc1OC [compound 249]", "< 10 nM"),
]

Now examine the next entry.
(Q) What IC50 value was documented for this compound, COc1ccc(CN2CCN(C3CC4(CCN(c5cc(Oc6cnc7[nH]ccc7c6)c(C(=O)NS(=O)(=O)c6ccc(NC[C@H]7CC[C@](C)(O)CC7)c([N+](=O)[O-])c6)cc5F)CC4)C3)[C@H](c3ccccc3C(C)C)C2)cc1 [compound 234] ?
(A) < 10 nM

---

Molecular target: BCL2 (G101V) (Homo sapiens (Human), UniProt P10415, G101V)
Assay: Molecular level activity test of anti-apoptotic protein BCL2 (G101V) (HTRF, binding to Bim peptide)
Details: inhibition of BCL2 (G101V) binding to Bim peptide, read-out: BCL-2 (G101V)
measured.quantity: IC50

# molecule, target.under.test, measured.quantity, result
rows = [
    ("COc1ccc(CN2CCN(C3CC4(CCN(c5ccc(C(=O)NS(=O)(=O)c6cc([N+](=O)[O-])c(NCC7CCOCC7)c7c6OCCO7)c(Oc6cnc7[nH]ccc7c6)c5)CC4)C3)[C@H](c3ccccc3C(C)C)C2)cc1 [compound 146]", "BCL2 (G101V) (Homo sapiens (Human), UniProt P10415, G101V)", "IC50", "< 0.01 µM"),
]

Now examine the next entry.
(Q) What IC50 value was documented for this molecule, COc1ccc(CN2CCN(C3CC4(CCN(c5cc(Oc6cnc7[nH]ccc7c6)c(C(=O)NS(=O)(=O)c6ccc(NCC7CCOCC7)c([N+](=O)[O-])c6)cc5F)CC4)C3)[C@H](c3ccccc3C(C)C)C2)cc1 [compound 239] ?
(A) < 0.01 µM

---

Molecular target: BCL-XL (Homo sapiens (Human), UniProt Q07817)
Sequence (Q07817 whole entry): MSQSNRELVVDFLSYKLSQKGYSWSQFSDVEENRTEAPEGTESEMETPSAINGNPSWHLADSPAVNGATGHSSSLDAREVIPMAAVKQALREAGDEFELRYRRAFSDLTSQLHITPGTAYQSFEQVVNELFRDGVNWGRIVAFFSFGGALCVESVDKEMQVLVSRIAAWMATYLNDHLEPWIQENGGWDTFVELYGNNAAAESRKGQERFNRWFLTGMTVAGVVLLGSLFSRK
Assay: BCL-XL enzyme molecular level activity test (HTRF, binding to BIM peptide)
Conditions: binding of BCL-XL to BIM peptide, values given in μM, read-out: BCL-XL inhibitory activity (IC50)
measured.quantity: IC50 (µM)
Numbers only, in µM.

# test.smiles, IC50 (µM)
rows = [
    ("COc1ccc(CN2CCN(C3CC4(CCN(c5ccc(C(=O)NS(=O)(=O)c6cc([N+](=O)[O-])c(NCC7CCOCC7)c7c6OCCO7)c(Oc6cnc7[nH]ccc7c6)c5)CC4)C3)[C@H](c3ccccc3C(C)C)C2)cc1", 2.7),
]

(Q) Provide the documented IC50 with BCL-XL (Homo sapiens (Human), UniProt Q07817) as the system for CC(C)c1ccccc1[C@@H]1CN(Cc2cnn(C)c2)CCN1C1CC2(CCN(c3cc(Oc4cnc5[nH]ccc5c4)c(C(=O)NS(=O)(=O)c4ccc(NCC5(F)CCOCC5)c([N+](=O)[O-])c4)cc3F)CC2)C1
(A) 1.9

---

Target: BCL2 (D103Y) (Homo sapiens (Human), UniProt P10415, D103Y)
Test: Molecular level activity test of BCL2 (D103Y) (HTRF, binding to Bim peptide)
Conditions: read-out: BCL-2 (D103Y) (nM) (inhibitory activity, IC50)
Answer each item with its documented IC50.

# compound, result
data = [
    ("COc1ccc(CN2CCN(C3CC4(CCN(c5cc(Oc6cnc7[nH]ccc7c6)c(C(=O)NS(=O)(=O)c6cc([N+](=O)[O-])c(NC[C@H]7CC[C@](C)(O)CC7)c7[nH]cnc67)cc5F)CC4)C3)[C@H](c3ccccc3C(C)C)C2)cc1 [compound 262]", "< 10 nM"),
    ("CC(C)c1ccccc1[C@@H]1CCCN1C1CC2(CCN(c3ccc(C(=O)NS(=O)(=O)c4cc([N+](=O)[O-])c(NCC5(F)CCN(C6COC6)CC5)c5[nH]cnc45)c(Oc4cnc5[nH]ccc5c4)c3)CC2)C1 [compound 002]", "< 10 nM"),
    ("COc1cc(CN2CCN(C3CC4(CCN(c5cc(Oc6cnc7[nH]ccc7c6)c(C(=O)NS(=O)(=O)c6ccc(NCC7(F)CCOCC7)c([N+](=O)[O-])c6)cc5F)CC4)C3)[C@H](c3ccccc3C(C)C)C2)ccc1CN(C)C [compound 247]", "< 10 nM"),
    ("COc1ccc(CN2CCN(C3CC4(CCN(c5cc(Oc6cnc7[nH]ccc7c6)c(C(=O)NS(=O)(=O)c6ccc(NC[C@H]7COCCO7)c([N+](=O)[O-])c6)cc5F)CC4)C3)[C@H](c3ccccc3C(C)C)C2)cc1 [compound 241]", "< 10 nM"),
    ("CC(C)c1ccccc1[C@@H]1CN(Cc2ccc(CN3CCCC3)cc2)CCN1C1CC2(CCN(c3cc(Oc4cnc5[nH]ccc5c4)c(C(=O)NS(=O)(=O)c4ccc(NCC5(F)CCOCC5)c([N+](=O)[O-])c4)cc3F)CC2)C1 [compound 245]", "< 10 nM"),
]

Hey, can you go through the list below and give me IC50 for every item?
1. COc1ccc(CN2CCN(C3CC4(CCN(c5cc(Oc6cnc7[nH]ccc7c6)c(C(=O)NS(=O)(=O)c6cc([N+](=O)[O-])c(NCC7CCOCC7)c7[nH]cnc67)cn5)CC4)C3)[C@H](c3ccccc3C(C)C)C2)cc1 [compound 267]
2. COc1cc(CN2CCN(C3CC4(CCN(c5cc(Oc6cnc7[nH]ccc7c6)c(C(=O)NS(=O)(=O)c6ccc(NCC7(F)CCOCC7)c([N+](=O)[O-])c6)cc5F)CC4)C3)[C@H](c3ccccc3C(C)C)C2)ccc1CN1CCCC1 [compound 248]

(A)
["< 10 nM", "< 10 nM"]

meta.source: patent US20250034135A1
